biological target: T1, human MET ECD (human, UniProt P08581 25-932); assay: ELISA, MET ECD in solid phase, crude periplasmic Fab
T1 construct: range 1-932; recombinant ECD made by the applicants; the stated range begins at residue 1, so it includes the signal peptide of the entry; also called hMET; hMET ECD
T1 sequence (P08581 25-932 limits assumed, form in doubt): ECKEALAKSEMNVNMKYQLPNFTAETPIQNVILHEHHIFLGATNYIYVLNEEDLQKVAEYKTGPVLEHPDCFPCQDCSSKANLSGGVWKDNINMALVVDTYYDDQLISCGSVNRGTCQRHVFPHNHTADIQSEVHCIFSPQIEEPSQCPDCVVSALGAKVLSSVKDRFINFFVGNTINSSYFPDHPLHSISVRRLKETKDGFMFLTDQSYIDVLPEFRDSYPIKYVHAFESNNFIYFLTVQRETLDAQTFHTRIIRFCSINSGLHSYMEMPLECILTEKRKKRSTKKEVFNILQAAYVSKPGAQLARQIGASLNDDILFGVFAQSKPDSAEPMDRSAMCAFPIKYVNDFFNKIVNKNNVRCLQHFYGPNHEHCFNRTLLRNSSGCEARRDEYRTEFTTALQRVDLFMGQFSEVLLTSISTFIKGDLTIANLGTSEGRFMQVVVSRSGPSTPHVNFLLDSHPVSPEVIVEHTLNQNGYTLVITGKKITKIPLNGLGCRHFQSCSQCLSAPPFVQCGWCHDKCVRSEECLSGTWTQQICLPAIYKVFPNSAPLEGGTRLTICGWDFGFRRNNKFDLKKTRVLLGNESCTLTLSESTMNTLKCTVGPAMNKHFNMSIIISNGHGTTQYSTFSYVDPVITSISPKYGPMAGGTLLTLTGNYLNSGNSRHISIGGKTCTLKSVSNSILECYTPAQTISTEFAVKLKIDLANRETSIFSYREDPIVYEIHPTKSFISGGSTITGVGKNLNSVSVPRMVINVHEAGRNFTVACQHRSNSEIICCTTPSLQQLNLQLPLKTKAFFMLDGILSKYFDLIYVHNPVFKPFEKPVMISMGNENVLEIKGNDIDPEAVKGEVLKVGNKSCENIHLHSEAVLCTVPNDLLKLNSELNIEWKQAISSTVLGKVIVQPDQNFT
Provide the reported OD450 of each item.
Answers are plain numbers, in AU.

// known answers, use as guide
{"binder": "71C3 Fab (Fab, V domains shown, llama Fab (VH-CH1 and lambda VL-CL) with MYC flag, crude periplasmic extract) VH: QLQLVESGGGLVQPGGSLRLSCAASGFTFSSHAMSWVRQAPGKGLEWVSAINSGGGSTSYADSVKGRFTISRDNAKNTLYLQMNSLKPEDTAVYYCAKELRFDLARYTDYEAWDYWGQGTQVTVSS VL: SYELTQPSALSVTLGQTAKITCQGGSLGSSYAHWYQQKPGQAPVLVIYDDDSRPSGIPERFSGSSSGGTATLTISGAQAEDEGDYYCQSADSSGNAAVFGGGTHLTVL", "OD450 / AU": 1.65}
{"binder": "72F8 Fab (Fab, V domains shown, llama Fab (VH-CH1 and lambda VL-CL) with MYC flag, crude periplasmic extract) VH: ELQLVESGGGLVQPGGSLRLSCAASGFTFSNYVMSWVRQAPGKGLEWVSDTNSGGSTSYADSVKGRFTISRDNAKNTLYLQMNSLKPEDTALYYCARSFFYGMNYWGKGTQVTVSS VL: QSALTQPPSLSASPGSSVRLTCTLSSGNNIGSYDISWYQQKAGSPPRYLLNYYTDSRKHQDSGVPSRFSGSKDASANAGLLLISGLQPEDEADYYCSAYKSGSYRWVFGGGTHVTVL", "OD450 / AU": 3.38}
{"binder": "71D6 Fab (Fab, V domains shown, llama Fab (VH-CH1 and lambda VL-CL) with MYC flag, crude periplasmic extract) VH: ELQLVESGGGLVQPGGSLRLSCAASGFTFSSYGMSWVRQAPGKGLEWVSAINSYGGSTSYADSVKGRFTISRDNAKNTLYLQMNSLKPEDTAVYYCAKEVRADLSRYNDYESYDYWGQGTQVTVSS VL: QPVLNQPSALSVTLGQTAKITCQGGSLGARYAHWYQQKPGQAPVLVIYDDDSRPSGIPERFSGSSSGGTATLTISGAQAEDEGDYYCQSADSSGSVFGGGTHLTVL", "OD450 / AU": 3.26}
{"binder": "76H10 Fab (Fab, V domains shown, llama Fab (VH-CH1 and lambda VL-CL) with MYC flag, crude periplasmic extract) VH: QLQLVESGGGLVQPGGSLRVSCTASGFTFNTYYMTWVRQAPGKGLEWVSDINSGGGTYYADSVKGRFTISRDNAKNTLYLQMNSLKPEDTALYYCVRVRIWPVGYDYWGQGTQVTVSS VL: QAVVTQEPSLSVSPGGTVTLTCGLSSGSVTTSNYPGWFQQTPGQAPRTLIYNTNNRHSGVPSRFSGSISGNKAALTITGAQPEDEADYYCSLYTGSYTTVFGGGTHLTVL", "OD450 / AU": 3.7}

Which OD450 is reported for this binder? 76G7 Fab (Fab, V domains shown, llama Fab (VH-CH1 and lambda VL-CL) with MYC flag, crude periplasmic extract) VH: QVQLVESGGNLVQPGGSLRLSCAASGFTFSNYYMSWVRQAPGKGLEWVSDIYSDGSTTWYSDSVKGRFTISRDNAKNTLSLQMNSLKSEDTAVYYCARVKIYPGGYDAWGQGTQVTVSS VL: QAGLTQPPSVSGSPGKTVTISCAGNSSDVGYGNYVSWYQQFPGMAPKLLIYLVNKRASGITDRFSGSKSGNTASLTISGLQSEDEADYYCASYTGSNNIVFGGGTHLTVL 3.2
